target: Kv1.3 (Homo sapiens, UniProt P22001); test: Electrophysiology: planar patch-clamp of Kv1.3 currents, IC50 from steady state current amplitude; conditions: Kv1.3 electrophysiology, results according to Method D1, read-out: IC50 (Kv1.3 ephys steady state)
Sequence (P22001 whole entry): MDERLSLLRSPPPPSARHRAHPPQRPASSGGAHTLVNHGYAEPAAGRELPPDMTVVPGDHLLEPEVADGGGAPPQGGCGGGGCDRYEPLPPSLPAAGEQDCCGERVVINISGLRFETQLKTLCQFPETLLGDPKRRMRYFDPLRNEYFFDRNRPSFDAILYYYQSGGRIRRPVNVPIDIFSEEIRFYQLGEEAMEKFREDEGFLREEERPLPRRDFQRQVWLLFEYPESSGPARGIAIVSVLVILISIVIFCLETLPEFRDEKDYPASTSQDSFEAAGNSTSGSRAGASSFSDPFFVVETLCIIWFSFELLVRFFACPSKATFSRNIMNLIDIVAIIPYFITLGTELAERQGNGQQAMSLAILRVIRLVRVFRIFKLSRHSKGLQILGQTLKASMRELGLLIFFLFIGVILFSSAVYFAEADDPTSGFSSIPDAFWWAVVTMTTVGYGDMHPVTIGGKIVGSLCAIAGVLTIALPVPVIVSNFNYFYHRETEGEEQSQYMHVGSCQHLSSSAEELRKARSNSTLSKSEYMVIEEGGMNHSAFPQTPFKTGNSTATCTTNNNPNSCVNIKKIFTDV
Attribute: IC50

# annotated cases, reported IC50 shown
- O=C(N(Cc1ccccn1)[C@@H](c1ccc(OC(F)F)cc1)C1CC1)C1(S(=O)(=O)c2ccc(F)cc2)CC1 [Example 91]: 200 to 1000 nM
- CC(C)(C(=O)N(Cc1cccnn1)C(c1ccc(OC(F)F)cc1)C1CC1)S(=O)(=O)c1ccc(F)cc1 (stereo not drawn) [Example 311]: 200 to 1000 nM
- O=C(CS(=O)(=O)c1ccc(F)cc1)N(C1CCC(F)(F)CC1)C(c1ccc(OC(F)F)cc1)C1CC1 (stereo not drawn) [Example 316]: 200 to 1000 nM
- CCS(=O)(=O)c1cccc(C(C2CC2)N(Cc2ccc(F)cn2)C(=O)C2CC2c2ccc(F)c(F)c2)c1 (stereo not drawn) [Example 197]: 50 to 200 nM

[Q] Give the measured IC50 of CC(CC(=O)N(Cc1cccnn1)C(c1ccc(OC(F)F)cc1)C1CC1)c1ccccc1C(F)(F)F (stereo not drawn) [Example 261] .
[A] 200 to 1000 nM

[Q] Give the measured IC50 of O=C(C1CC1c1ccc(F)cc1)N(Cc1ncccc1F)C(c1ccc(F)cc1)C1CCOC1 (stereo not drawn) [Example 171] .
[A] 200 to 1000 nM

[Q] Give the measured IC50 of N#Cc1cccc(C(C2CC2)N(Cc2ccc(C(F)(F)F)nc2)C(=O)CS(=O)(=O)c2ccc(F)cc2)c1 (stereo not drawn) [Example 332] .
[A] 50 to 200 nM
